- Test system: COLO-684 (Endometrial Carcinoma)
- EXPERIMENTAL_PROTOCOL: combination Emax (second highest fraction inhibited in the dose matrix, 72 h); higher = more inhibition; extreme values may be limits of the assay
VALUE_KIND: combination Emax
Give the value as a plain number.

Reported combination Emax for COLO-684 (Endometrial Carcinoma), given C[C@@H](Oc1cc(-c2cnn(C3CCNCC3)c2)cnc1N)c1c(Cl)ccc(F)c1Cl [Crizotinib] + CC1=C(C(=CC=C1)Cl)NC(=O)C2=CN=C(S2)NC3=CC(=NC(=N3)C)N4CCN(CC4)CCO [Dasatinib] (first compound max 10 µM, 7x7, partner max 2 µM) ?
0.41

Again, but for CC1(C)CCC(CN2CCN(c3ccc(C(=O)NS(=O)(=O)c4ccc(NCC5CCOCC5)c([N+](=O)[O-])c4)c(Oc4cnc5[nH]ccc5c4)c3)CC2)=C(c2ccc(Cl)cc2)C1 [Venetoclax] + C=CCn1c(=O)c2cnc(Nc3ccc(N4CCN(C)CC4)cc3)nc2n1-c1cccc(C(C)(C)O)n1 [AZD1775] (first compound max 1 µM, partner max 1 µM)
0.732

Again, but for CS(=O)(=O)CCNCc1ccc(-c2ccc3ncnc(Nc4ccc(OCc5cccc(F)c5)c(Cl)c4)c3c2)o1 [Lapatinib] + Cn1cnc2c(F)c(Nc3ccc(Br)cc3Cl)c(C(=O)NOCCO)cc21 [Selumetinib] (first compound max 10 µM, 7x7, partner max 10 µM)
0.349

The reported measurements were obtained from the supplement of paper PMC11061612.
